These entries and their values trace back to PubChem BioAssay (EPA / NIEHS).

Read-out: TIMP metallopeptidase inhibitor 2 (TIMP2), TIMP2 (gene 7077)
Test method notes: BSK_KF3CT_TIMP2: BioMAP Diversity Plus: KF3CT Assay for TIMP metallopeptidase inhibitor 2 (TIMP2) Biomarker Activity (AID 2283071)
Condition notes: primary human keratinocytes with fibroblasts; actives raise or lower the signal
The source made the active and inactive calls. How the source made its calls: active means hit-call score of the fitted dose curve at least 0.9, where 1 is the maximum; inactive means score below 0.9.
Measure: AC50

>>> readout_value("CCCCOC(=O)COC(=O)c1ccccc1C(=O)OCCCC")
"inactive"
>>> readout_value("Nc1ccc(N)cc1")
"inactive"
>>> readout_value("O=S(=O)(C(Cl)(Cl)Cl)C(Cl)(Cl)Cl")
"2.25 µM (active)"
>>> readout_value("c1ccc2sc(SNC3CCCCC3)nc2c1")
"inactive"
>>> readout_value("O=C1C=CC(=O)c2ccccc21")
"1.67 µM (active)"
>>> readout_value("CCOP(=S)(OCC)SCS(=O)(=O)C(C)(C)C")
"inactive"
>>> readout_value("NC(=O)CCl")
"inactive"
>>> readout_value("[Cl][Sn]([c]1ccccc1)([c]1ccccc1)[c]1ccccc1")
"0.209 µM (active)"

# input for lookup
Q. Please look up its AC50: CC(C)=CC1C(C(=O)OCc2cccc(Oc3ccccc3)c2)C1(C)C (stereo not drawn)
A. 2.81 µM (active)
